Aureobasidium pullulans: reported MIC for various molecules.
Give just the numeric value; µg/mL need not be written.

# example entries with known answers
CC(CCOc1cccc(=O)n1O)CC(C)(C)C (stereo not shown) [Example 1] ... 2
CCCCCCCCOc1cccc(=O)n1O [Example 2, 1-Hydroxy-6-octyloxypyridine-2(1H)-one] ... 4

We next turn to a different molecule, shown below.
Req: Give its MIC value. Item: CCCCCCCCOc1cccc(=S)n1O [Example 3]
Resp: 16

###

What follows is a collection of MIC values obtained with Candida albicans.
Output spec: scalar in µg/mL, unitless text.

The following molecules have reported results that may help.
CC(CCOc1cccc(=O)n1O)CC(C)(C)C (stereo not shown) ... 2
Cc1cc(CC(C)CC(C)(C)C)n(O)c(=O)c1 (stereo not shown) [OCTOPIROX® biocide, reference compound] ... 2
CCCCCCCCOc1cccc(=S)n1O ... 4

Req: # input molecule: CCCCCCCCOc1cccc(=O)n1O [Example 2, 1-Hydroxy-6-octyloxypyridine-2(1H)-one] ; wanted: its MIC
Resp: 4
